# assay.details: NCI Yeast Anticancer Drug Screen. Data for the rad14 strain (AID 159);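 also: 0% = growth of vehicle-treated control cultures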
# condition.set: S. cerevisiae rad14 strain growth inhibition; at 100.0 µM; hits give high values
About 79,000 compounds went through this panel and 15% of them were active in at least one assay; those are over-represented in the sample as a whole.
measured.property: growth inhibition (%)
Answers are plain numbers, in %.

INSERT INTO assay_data (smiles_str, reported_value) VALUES
  ('CN(C)CCCCN1c2ccccc2Sc2ccc(N=[N+]=[N-])cc21', 99),
  ('NC(=S)NC(=S)Nc1ccccc1', 93);

// next entry
// lookup growth inhibition for Cc1cc(C(C)(C)CC(C)(C)C)ccc1O
99

====

# assay.details: NCI Yeast Anticancer Drug Screen. Data for the mgt1 strain (AID 153)
# condition.set: S. cerevisiae mgt1 mutant growth inhibition; at 33.0 µM
The panel holds about 79,000 compounds, 15% with a hit somewhere; the sample as a whole holds those more often. Active and inactive are the calls of the source. Rule as the data show it: active = growth inhibition above about 70%; inactive = the rest.
In this exercise, the only acceptable responses are active, inactive

Reference set, count: 8
INSERT INTO assay_data (compound, answer_label) VALUES
  ('O=C1NC(=O)c2ccc([N+](=O)[O-])c3cccc1c23', 'inactive'),
  ('CC(C)CN(CC(C)C)C(=O)c1ccc(Cl)c(Cl)c1', 'inactive'),
  ('COc1ccc(C2C3=C(COC3=O)OC(C)(C)Oc3cc4c(cc32)OCO4)cc1OC (stereo unspecified)', 'inactive'),
  ('CCCCCCCCCCCCCCCCCC(=O)NCCCN(C)C', 'active'),
  ('CC(=O)Nc1ccc2c(c1)-c1ccccc1C2=O', 'inactive'),
  ('COC(=O)Nc1cn2ccc(C(Cl)=C(Cl)Cl)cc2n1', 'inactive'),
  ('CN(C)c1ccc(N=Nc2ccncc2)cc1', 'inactive'),
  ('COc1ccc(C(NCCNC(c2ccc(OC)c(OC)c2)c2cc3c(cc2O)OCO3)c2cc3c(cc2O)OCO3)cc1OC (stereo unspecified)', 'inactive');

Kindly provide the recorded test outcome for the following compound: CCc1c(Cl)c(C)cc(O)c1Cl
inactive

Kindly provide the recorded test outcome for the following compound: O=[N+]([O-])c1cc[n+]([O-])cc1
inactive

Kindly provide the recorded test outcome for the following compound: COc1ccc(/C=C/c2sc3ccccc3[n+]2CCCCI)cc1OC
active

====

# assay.details: NCI Yeast Anticancer Drug Screen. Data for the mlh1 strain (AID 171);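 also: 0% = growth of vehicle-treated control cultures of the same strain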
# condition.set: S. cerevisiae mlh1 strain growth inhibition; at 100.0 µM; hits give high values
About 79,000 compounds went through this panel and 15% of them were active in at least one assay; those are over-represented in the sample as a whole.
measured.property: growth inhibition (%)
Give bare numbers, in %.

Some solved cases for reference:
INSERT INTO assay_data (compound, unit_abbreviation, reported_value) VALUES
  ('Cc1ccc2c(c1)C1(SC(C)C(=O)N1c1ccc(Cl)cc1)C(=O)N2 (stereo not drawn)', '%', 99),
  ('O=[N+]([O-])c1cc(Cl)cnc1Br', '%', 27),
  ('CC(C)(C)c1ccc(NS(=O)(=O)c2ccc(N)cc2)cc1', '%', 48),
  ('Cc1cc(C)nc(NS(=O)(=O)c2ccc(Nc3c4ccccc4nc4c(C(=O)NCCO)cccc34)cc2)n1', '%', 30),
  ('O=C1Nc2ccccc2/C1=C/c1ccccc1', '%', 81),
  ('O=C1c2ccccc2C(=O)N1CCCC(=O)n1cc(F)c(=O)[nH]c1=O', '%', 78),
  ('CC(=O)Nc1ccc2c(c1)Cc1cc(N=C3C=CC(=O)O3)ccc1-2', '%', 99);

// lookup growth inhibition for OC(CCNCc1ccccc1)c1ccc2ccccc2c1 (stereo not drawn)
95

====

# assay.details: NCI Yeast Anticancer Drug Screen. Data for the rad52 strain (AID 147);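 also: 0% = growth of vehicle-treated control cultures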
# condition.set: S. cerevisiae rad52 mutant growth inhibition; at 3.7 µM
About 79,000 compounds went through this panel and 15% of them were active in at least one assay; those are over-represented in the sample as a whole. Calls of active or inactive are those of the source. Cut-off read from the data, not from the text of the source: active = growth inhibition above about 70%; inactive = the rest.
In this exercise, the only acceptable responses are T = active, F = inactive

INSERT INTO assay_data (compound, answer_label) VALUES
  ('Nc1n[n+]([O-])c2ccc(Cl)cc2[n+]1[O-]', 'T'),
  ('OC(/C=C/c1ccccc1)(Cc1cc(-c2ccccc2)n[nH]1)c1ccccc1 (centres undefined)', 'F');

Kindly provide the recorded test outcome for the following compound: Cc1cc(N(CCOS(C)(=O)=O)CCOS(C)(=O)=O)ccc1C=Nc1ccc(-c2nc(Cc3ccccc3)sc2C)cc1
F

Kindly provide the recorded test outcome for the following compound: Nc1ccc2c(c1)C(=O)c1ccc(F)cc1-2
F

====

# assay.details: NCI Yeast Anticancer Drug Screen. Data for the sgs1 strain (AID 173);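 also: 0% = growth of vehicle-only control cultures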
# condition.set: S. cerevisiae sgs1 mutant, at 100.0 µM
The panel holds about 79,000 compounds, 15% with a hit somewhere; the sample as a whole holds those more often. Active and inactive are the calls of the source. No stated cut-off is given here; in the data, active means growth inhibition above about 70%; inactive means the rest.
In this exercise, the only acceptable responses are active, inactive

INSERT INTO results (compound, answer_label) VALUES
  ('CCOC(=O)c1[nH]n(-c2ccccc2)c(=O)c1C=NC(=S)C(N)=S', 'active'),
  ('CNC(=O)OCc1c(COC(=O)NC)c(-c2ccc(Cl)c(Cl)c2)n2c1SCC2', 'active'),
  ('CCC(C)OC(=O)Nc1ccc(C)c(NC(=O)OC(C)CC)c1 (configuration not stated)', 'active'),
  ('CCc1ccc2c(c1)N(CC(C)CN(C)C)c1ccccc1S2 (configuration not stated)', 'active'),
  ('OCC(CO)C(c1cccc2ccccc12)c1cccc2ccccc12', 'active'),
  ('CCOC(=O)C1=C(C)NC(C)=C(C(=O)OCCNC(=O)c2ccc(N=[N+]=[N-])cc2)C1c1ccccc1C(F)(F)F (configuration not stated)', 'inactive');

Moving on to the next compound.
Kindly provide the recorded test outcome for the following compound: CN1C(=O)c2ccc3ccccc3c2C1=O
inactive

====

# assay.details: NCI Yeast Anticancer Drug Screen. Data for the mec2-1 strain (AID 157)
# condition.set: S. cerevisiae mec2-1 strain, at 50.0 µM (retest, dose inferred, filed as 5.0), hits give high values
The panel holds about 79,000 compounds, 15% with a hit somewhere; the sample as a whole holds those more often.
Please go through the items and note down their growth inhibition.
Numbers only, in %.

INSERT INTO results (molecule, unit_abbreviation, reported_value) VALUES
  ('O=C(CC(C(=O)O)N1CCOCC1)c1ccccc1 (stereo not drawn)', '%', 41);

Need growth inhibition for each of these molecules.
1. COc1ccc(C(NCCNC(c2ccc(OC)c(OC)c2)c2cc3c(cc2O)OCO3)c2cc3c(cc2O)OCO3)cc1OC (stereo not drawn)
2. CCCC(=O)Oc1c(C)cc([N+](=O)[O-])cc1[N+](=O)[O-]

1. 95
2. 100

====

# assay.details: NCI Yeast Anticancer Drug Screen. Data for the mgt1 strain (AID 153)
# condition.set: S. cerevisiae mgt1 mutant growth inhibition; at 33.0 µM; hits give high values
# Experimental: Growth inhibition of yeast strains with defined genetic alterations is measured as a screen for potential anti-cancer activity. Selected strains with alterations in DNA damage repair or cell cycle control were exposed to compounds and growth inhibition was measured relative to vehicle treated controls. The strain used in this assay is mgt1
About 79,000 compounds went through this panel and 15% of them were active in at least one assay; those are over-represented in the sample as a whole.
Label Criterion not met if growth inhibition falls below 20%; label Criterion met in every other case.

INSERT INTO results (compound, answer_label) VALUES
  ('O=C(NCCCl)Sc1ccc(Cl)cc1', 'Criterion met'),
  ('Oc1ccc2c(c1)C(O)CCCC2 (stereo not drawn)', 'Criterion not met'),
  ('CC1(C)CC(=O)C(/C=N/c2nc(-c3ccccc3)cs2)=C(O)C1', 'Criterion met'),
  ('Cc1cc2c(cc1C)[n+]([O-])c(-c1nc3ccccc3s1)c(N)[n+]2[O-]', 'Criterion met'),
  ('NC1=NNC2(C(N)=N1)c1ccccc1-c1ccccc12', 'Criterion met'),
  ('CCCCCCC(O)CNCc1ccnc2ccc(OC)cc12 (stereo not drawn)', 'Criterion met'),
  ('CCCCC(CC)C(=O)[O][Sn]([CH2]CCC)([CH2]CCC)[O]C(=O)C(CC)CCCC (stereo not drawn)', 'Criterion met'),
  ('CN(C)[C@@H]1C(=O)C(C(N)=O)=C(O)[C@@]2(O)C(=O)C3=C(O)c4c(O)cccc4C[C@H]3C[C@@H]12', 'Criterion met');

growth inhibition >= 20% for CCCCCOC(=S)SC(=O)OCC ?
Criterion met

growth inhibition >= 20% for O=C(/C=C(/c1ccccc1)N1CCCCC1)c1ccccc1 ?
Criterion not met

growth inhibition >= 20% for O=C(O)c1ccc(N2C(=O)C=CC2=O)cc1 ?
Criterion not met

growth inhibition >= 20% for COC(=O)CC1(O)C(/C=C/c2ccccc2)C(C(=O)OC)C(=O)C(C(=O)OC)C1C(=O)OC (stereo not drawn) ?
Criterion not met

growth inhibition >= 20% for COc1ccc([N+](=O)[O-])c2c(NCCCN(C)C)c3ccccc3nc12 ?
Criterion not met
